# assay: qHTS of pediatric cancer cell lines to identify multiple opportunities for drug repurposing: Confirmatory screen for Rh30 cells (AID 1347126); further: nearly all actives have a fitted effect of over 55% in size
# statedConditions: Rh30 rhabdomyosarcoma cell viability; series mostly up to 45.9 µM
Results filed as inconclusive are left out. Active and inactive are the calls of the source. The call rests on the fitted dose curve; in most records, active means well fitted cell-killing curve with a large enough effect; inconclusive means small, poorly fitted or top-dose-only effect, or effect the other way; inactive means no such curve, though single readings can be large or run the other way.
Labels: 1 for active, -1 for inactive

testSmiles: Nc1nc(Cl)nc2c1ncn2[C@H]1C[C@H](O)[C@@H](CO)O1
group: -1

testSmiles: CCCCc1ccc2nc(NC(=O)OC)[nH]c2c1
group: 1

testSmiles: O=C(CCc1ccc(O)cc1)c1c(O)cc(O)cc1O
group: -1

testSmiles: CS(=O)(=O)OCCCCOS(C)(=O)=O
group: -1

testSmiles: Nc1nc(OCc2ccccc2)c2[nH]cnc2n1
group: -1

testSmiles: Cc1ccc(NC(=O)c2ccc(CN3CCN(C)CC3)cc2)cc1Nc1nccc(-c2cccnc2)n1
group: -1

====

# assay: qHTS assay for small molecule activators of the p53 signaling pathway (AID 651743); further: % of control where 0% means no effect
# statedConditions: HCT-116 p53RE-bla, beta-lactamase FRET ratio, 16 h; stronger effect = higher value
Inconclusive results are not listed. Calls of active or inactive are those of the source. The call rests on the fitted dose curve; in most records, active means well fitted activation curve with a large enough effect in the signal ratio (not every such curve was filed as active); inconclusive means small, poorly fitted or top-dose-only effect, or a change in a side signal; inactive means flat fitted curve, though single readings scatter; the % refers to the signal ratio.
Measured activation values are reported for all entries that follow.
parameterMeasured: activation

compound: CCCCC(CC)COC(=O)C(C#N)=C(c1ccccc1)c1ccccc1 (centres undefined)
valueObserved: -3.23% (inactive)

compound: CC1(C)NC(=O)N(c2ccc([N+](=O)[O-])c(C(F)(F)F)c2)C1=O
valueObserved: 15.1% (inactive)

compound: Nc1ccc(S(N)(=O)=O)cc1
valueObserved: -2.72% (inactive)

compound: COc1cc(OC)c(C(=O)CCCN2CCCC2)c(OC)c1
valueObserved: -0.273% (inactive)

====

# assay: Quantitative High-Throughput drug screen in 47 multiple myeloma cell lines against the NCATS MIPE library collection: OPM1_PLB cell viability assay (AID 1918989); further: nearly all actives have a fitted effect of over 40% in size
# statedConditions: CellTiter-Glo, 48 h; series mostly up to 45.8 µM
Inconclusive results are not listed. Calls of active or inactive are those of the source. Calls follow the shape of the dose curve; as a rule, active = well fitted cell-killing curve with a large enough effect; inconclusive = small, poorly fitted or top-dose-only effect, or effect the other way; inactive = no such curve, though single readings can be large or run the other way.
Labels: active, inactive

compound: NCCCCNCCCN
group: active
//
compound: Nc1cccc2c1CN(C1CCC(=O)NC1=O)C2=O (stereo unspecified)
group: inactive
//
compound: O=c1cc(N2CCOCC2)oc2c(-c3ccccc3)cccc12
group: active
//
compound: C[C@H](Cc1ccc(O)c(O)c1)[C@@H](C)Cc1ccc(O)c(O)c1
group: active
//
compound: CCC(C)(Oc1ccc(C2(c3ccc(OC(C)(CC)C(=O)O)cc3)CCCCC2)cc1)C(=O)O (stereo unspecified)
group: inactive
//
compound: O=C(NC(Cc1cc(=O)[nH]c2ccccc12)C(=O)O)c1ccc(Cl)cc1 (stereo unspecified)
group: inactive
//
compound: COc1ccc(C2(C#N)CCC(C(=O)O)CC2)cc1OC1CCCC1 (stereo unspecified)
group: active
//
compound: CCC[C@@H]1C[C@@H](C(=O)N[C@@H]([C@H]2O[C@H](SC)[C@H](O)[C@@H](O)[C@H]2O)[C@@H](C)O)N(C)C1
group: inactive
//
compound: O=P(O)(O)C(O)(Cn1ccnc1)P(=O)(O)O
group: inactive
//
compound: CC(=O)N1CCN(c2ccc(OC[C@H]3CO[C@](Cn4ccnc4)(c4ccc(Cl)cc4Cl)O3)cc2)CC1
group: active
//
compound: CS(=O)(=O)OCCCCOS(C)(=O)=O
group: inactive

====

# assay: qHTS for differential inhibitors of proliferation of Plasmodium falciparum line GB4 (AID 1816);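 further: parasite growth measured after 72 h incubation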
# statedConditions: Plasmodium falciparum GB4 proliferation inhibition; series mostly up to 28.7 µM
Records with an inconclusive call do not appear. Activity calls are given as the source filed them. The call rests on the fitted dose curve; in most records, active means well fitted curve in the direction sought with a large enough effect; inconclusive means small, poorly fitted or top-dose-only effect, or another doubt; inactive means no such curve, though single readings can be large or run the other way.
Labels: true (active), false (inactive)

compound: NNc1nncc2ccccc12
group: false
--
compound: NCCCCNCCCN
group: false
--
compound: C[C@@H](N)C1CCC(C(=O)Nc2ccncc2)CC1 (some centres undefined)
group: false
--
compound: O=C(c1ccccc1)c1ccc2n1CCC2C(=O)O (centres undefined)
group: false
--
compound: C[C@H](Cc1ccc(O)c(O)c1)[C@@H](C)Cc1ccc(O)c(O)c1
group: true
--
compound: CC(C)c1ccc2c(c1)c(SC(C)(C)C)c(CC(C)(C)C(=O)O)n2Cc1ccc(Cl)cc1
group: true
--
compound: NC(=NCc1ccccc1)NC(=O)c1nc(Cl)c(N)nc1N
group: true
--
compound: O=C(O)c1cccnc1Nc1cccc(C(F)(F)F)c1
group: false
--
compound: CC1(C)C(=O)N(CCN2CCC(C(=O)c3ccc(F)cc3)CC2)c2ccccc21
group: true
--
compound: CC(=O)O[C@H]1C(=O)[C@@]2(C)C([C@H](OC(=O)c3ccccc3)[C@]3(O)C[C@H](OC(=O)[C@H](O)[C@@H](NC(=O)c4ccccc4)c4ccccc4)C(C)=C1C3(C)C)[C@]1(OC(C)=O)CO[C@@H]1C[C@@H]2O (some centres undefined)
group: true
--
compound: COc1ccc2cc([C@H](C)C(=O)O)ccc2c1
group: false
--
compound: O=C1c2c(O)cc(O)cc2OC(c2ccc(O)c(O)c2)C1O (centres undefined)
group: true
--
compound: Oc1ccc(-c2nc(-c3ccc(F)cc3)c(-c3ccncc3)[nH]2)cc1
group: true
--
compound: CC1(C)NC(=O)N(c2ccc([N+](=O)[O-])c(C(F)(F)F)c2)C1=O
group: false

====

# assay: Quantitative High-Throughput drug screen in 47 multiple myeloma cell lines against the NCATS MIPE library collection: UTMC2_PLB cell viability assay (AID 1919868); further: nearly all actives have a fitted effect of over 55% in size
# statedConditions: CellTiter-Glo ATP luminescence, 48 h; series mostly up to 45.8 µM
Results filed as inconclusive are left out. Active and inactive are the calls of the source. Calls come from the whole dose curve; as a rule, active = well fitted cell-killing curve with a large enough effect; inconclusive = small, poorly fitted or top-dose-only effect, or effect the other way; inactive = no such curve, though single readings can be large or run the other way.
Labels: Y (active), N (inactive)

compound: CC(C)C[C@H](NC(=O)[C@H](Cc1ccccc1)NC(=O)c1cnccn1)B(O)O
group: Y

compound: Clc1ccc(C(Cn2ccnc2)OCc2ccc(Sc3ccccc3)cc2)c(Cl)c1 (configuration not stated)
group: Y

compound: Cc1cccc(CN2CCN(C(c3ccccc3)c3ccc(Cl)cc3)CC2)c1 (configuration not stated)
group: Y

compound: C[Se]CCC(N)C(=O)O (configuration not stated)
group: N

compound: CN(C)C(=O)[C@H](O)[C@H](Cc1ccccc1)NC(=O)c1cc2cc(Cl)ccc2[nH]1
group: Y

compound: Cc1ccc(C(=O)c2cc(O)c(O)c([N+](=O)[O-])c2)cc1
group: Y

compound: CCCOc1ccc2nc(NC(=O)OC)[nH]c2c1
group: Y

compound: Nc1nc(N)c(N=O)c(OCC2CCCCC2)n1
group: Y

compound: Oc1ccc(OCc2ccccc2)cc1
group: N

compound: Nc1ccc(S(N)(=O)=O)cc1
group: N

compound: CC[C@]1(O)C[C@H]2CN(CCc3c([nH]c4ccccc34)[C@@](C(=O)OC)(c3cc4c(cc3OC)N(C=O)[C@H]3[C@@](O)(C(=O)OC)[C@H](OC(C)=O)[C@]5(CC)C=CCN6CC[C@]43[C@@H]65)C2)C1
group: Y

compound: COc1cc2c(N3CCN(C(=O)Nc4ccc(OC(C)C)cc4)CC3)ncnc2cc1OCCCN1CCCCC1
group: Y

compound: O=C(O)c1cccnc1Nc1cccc(C(F)(F)F)c1
group: N

compound: CCN(CC)C(=S)SSC(=S)N(CC)CC
group: Y

compound: Cc1cc(O)c2c(c1)C(=O)c1cc(O)cc(O)c1C2=O
group: N

compound: CCCCCCCCOc1ccccc1C(=O)Nc1ccc(C(=O)OCC[N+](C)(CC)CC)cc1
group: Y

compound: Cc1cc2c(s1)Nc1ccccc1N=C2N1CCN(C)CC1
group: N

compound: O=C(OC1C[C@H]2CC[C@@H](C1)[N+]21CCCC1)C(O)(c1ccccc1)c1ccccc1 (some centres not stated)
group: N

compound: CN(C)CCc1c[nH]c2ccc(Cn3cncn3)cc12
group: N

compound: O=Nc1c(-c2c(O)[nH]c3cc(Br)ccc23)[nH]c2ccccc12
group: Y

compound: O=C(O)c1cn(-c2ccc(F)cc2)c2cc(N3CCNCC3)c(F)cc2c1=O
group: N

compound: Cc1cc(Cl)ccc1OCCCC(=O)NO
group: Y

compound: COc1cc(Nc2c(C#N)cnc3cc(OCCCN4CCN(C)CC4)c(OC)cc23)c(Cl)cc1Cl
group: Y

compound: Cc1nc(-c2ccc(OCC(C)C)c(C#N)c2)sc1C(=O)O
group: N

compound: CC(=O)N1CCN(c2ccc(OC[C@H]3CO[C@](Cn4ccnc4)(c4ccc(Cl)cc4Cl)O3)cc2)CC1
group: N

compound: NC(=NCc1ccccc1)NC(=O)c1nc(Cl)c(N)nc1N
group: N

compound: O=c1c(O)c(-c2cc(O)c(O)c(O)c2)oc2cc(O)cc(O)c12
group: N

====

# Test system: CP315
# assay: qHTS profiling for inhibitors of Plasmodium falciparum proliferation (AID 504749); further: nearly all actives have a fitted effect of over 60% in size
# statedConditions: P. falciparum in erythrocytes, SYBR Green DNA, 72 h; series mostly up to 28.7 µM
Records with an inconclusive call do not appear. Active and inactive are the calls of the source. Calls come from the whole dose curve; as a rule, active = well fitted inhibition curve with a large enough effect; inconclusive = small, poorly fitted or top-dose-only effect; inactive = flat fitted curve, though single readings scatter.
Labels: class 1 for active, class 0 for inactive

testSmiles: CCCCCCCCCCCCCCCCCCCCCCO
group: class 0

testSmiles: O=C(O)c1cc(=O)c2c(OCC(O)COc3cccc4oc(C(=O)O)cc(=O)c34)cccc2o1
group: class 0

testSmiles: CNC[C@@H](O)[C@@H](O)[C@H](O)[C@H](O)CO
group: class 0

testSmiles: CCc1nc(N)nc(N)c1-c1ccc(Cl)cc1
group: class 0

testSmiles: O=C(O)c1cccnc1Nc1cccc(C(F)(F)F)c1
group: class 0

testSmiles: Nc1ccc(S(N)(=O)=O)cc1
group: class 0

testSmiles: CC(C)[C@H](N)C(=O)OCCOCn1cnc2c(=O)[nH]c(N)nc21
group: class 0

testSmiles: CCOc1cc(CC(=O)N[C@@H](CC(C)C)c2ccccc2N2CCCCC2)ccc1C(=O)O
group: class 0

testSmiles: CN(C)c1ccc2nc3ccc(=[N+](C)C)cc-3sc2c1
group: class 1

testSmiles: NNc1nncc2ccccc12
group: class 0

testSmiles: O=C(O)CCNC(=O)c1ccc(N=Nc2ccc(O)c(C(=O)O)c2)cc1
group: class 0

testSmiles: Cc1ccc(C)c(OCCCC(C)(C)C(=O)O)c1
group: class 0

// provenance: PubChem BioAssay (NCATS)
